Values were extracted from paper doi:10.1101/2023.04.18.537371v1.

protocolDescription: Tissue distribution in SD rats after single subcutaneous injection
Format: in vivo, SD rat
conditionInfo: male, SD, rat, kidney, sc, 10 mg/kg
Peptide text beside a SMILES is read from it.
endpoint: tissue level at time at 0.5 h (ng/g)
Reply with just the number (in ng/g).

Enquiry: Item CC(C)[C@@H](NC(=O)[C@H](N)Cc1ccc(O)cc1)C(=O)N[C@H](CC(=O)O)C(=O)N[C@H](CCCCN)C(=O)N[C@H](CCCNC(=N)N)C(=O)O [FC-12738, (D-Tyr)-(D-Val)-(D-Asp)-(D-Lys)-(D-Arg)] (HELM PEPTIDE1{[dY].[dV].[dD].[dK].[dR]}$$$$V2.0) has what recorded tissue level at time at 0.5 h?
Return: 28500

* * *

protocolDescription: Single-dose pharmacokinetics in SD rats
Type: in vivo, SD rat
conditionInfo: male, SD, rat, plasma, sc, 10 mg/kg
Peptide text beside a SMILES is read from it.
endpoint: Cmax (ng/mL)
Give your result in ng/mL as a bare value.

Enquiry: # Cmax lookup, item CC(C)[C@@H](NC(=O)[C@H](N)Cc1ccc(O)cc1)C(=O)N[C@H](CC(=O)O)C(=O)N[C@H](CCCCN)C(=O)N[C@H](CCCNC(=N)N)C(=O)O [FC-12738, (D-Tyr)-(D-Val)-(D-Asp)-(D-Lys)-(D-Arg)] (HELM PEPTIDE1{[dY].[dV].[dD].[dK].[dR]}$$$$V2.0)
Return: 8430

* * *

protocolDescription: Tissue distribution in SD rats after single subcutaneous injection
Format: in vivo, SD rat
conditionInfo: male, SD, rat, brain, sc, 10 mg/kg
Peptide text beside a SMILES is read from it.
endpoint: tissue level at time at 0.5 h (ng/g)
Please state the figure in ng/g; there is no need to write the unit.

Enquiry: Requested read-out: tissue level at time at 0.5 h. Entry: CC(C)[C@@H](NC(=O)[C@H](N)Cc1ccc(O)cc1)C(=O)N[C@H](CC(=O)O)C(=O)N[C@H](CCCCN)C(=O)N[C@H](CCCNC(=N)N)C(=O)O [FC-12738, (D-Tyr)-(D-Val)-(D-Asp)-(D-Lys)-(D-Arg)] (HELM PEPTIDE1{[dY].[dV].[dD].[dK].[dR]}$$$$V2.0)
Return: 128

* * *

protocolDescription: Tissue distribution in SD rats after single subcutaneous injection
Assay type: in vivo, SD rat
conditionInfo: male, SD, rat, fat, sc, 10 mg/kg
Peptide text beside a SMILES is read from it.
endpoint: tissue level at time at 0.5 h

Enquiry: Bench note: what tissue level at time at 0.5 h did CC(C)[C@@H](NC(=O)[C@H](N)Cc1ccc(O)cc1)C(=O)N[C@H](CC(=O)O)C(=O)N[C@H](CCCCN)C(=O)N[C@H](CCCNC(=N)N)C(=O)O [FC-12738, (D-Tyr)-(D-Val)-(D-Asp)-(D-Lys)-(D-Arg)] (HELM PEPTIDE1{[dY].[dV].[dD].[dK].[dR]}$$$$V2.0) show?
Return: 1070 ng/g

* * *

protocolDescription: Tissue distribution in SD rats after single subcutaneous injection
Type: in vivo, SD rat
conditionInfo: male, SD, rat, spleen, sc, 10 mg/kg
Peptide text beside a SMILES is read from it.
endpoint: tissue level at time at 0.5 h (ng/g)
Quick reminder: number only, in ng/g, skip the unit.

Enquiry: Sample CC(C)[C@@H](NC(=O)[C@H](N)Cc1ccc(O)cc1)C(=O)N[C@H](CC(=O)O)C(=O)N[C@H](CCCCN)C(=O)N[C@H](CCCNC(=N)N)C(=O)O [FC-12738, (D-Tyr)-(D-Val)-(D-Asp)-(D-Lys)-(D-Arg)] (HELM PEPTIDE1{[dY].[dV].[dD].[dK].[dR]}$$$$V2.0) — what was its tissue level at time at 0.5 h?
Return: 1490

* * *

protocolDescription: In vitro blood to plasma partitioning
Assay type: in vitro ADME, rat
conditionInfo: rat, whole blood
Peptide text beside a SMILES is read from it.
endpoint: tissue to tissue ratio at 1 h, 0.2 µM
Response field accepts a number only; no unit should be typed.

Enquiry: Tell me the measured tissue to tissue ratio at 1 h, 0.2 µM of CC(C)[C@@H](NC(=O)[C@H](N)Cc1ccc(O)cc1)C(=O)N[C@H](CC(=O)O)C(=O)N[C@H](CCCCN)C(=O)N[C@H](CCCNC(=N)N)C(=O)O [FC-12738, (D-Tyr)-(D-Val)-(D-Asp)-(D-Lys)-(D-Arg)] (HELM PEPTIDE1{[dY].[dV].[dD].[dK].[dR]}$$$$V2.0) , please.
Return: 0.48

* * *

protocolDescription: Single-dose pharmacokinetics in beagle dogs
Format: in vivo, beagle dog
conditionInfo: male, beagle, dog, plasma, sc, 5 mg/kg
Peptide text beside a SMILES is read from it.
endpoint: Cmax (ng/mL)
Give just the number in ng/mL; leave the unit off.

Enquiry: Return reported Cmax; argument: CC(C)[C@@H](NC(=O)[C@H](N)Cc1ccc(O)cc1)C(=O)N[C@H](CC(=O)O)C(=O)N[C@H](CCCCN)C(=O)N[C@H](CCCNC(=N)N)C(=O)O [FC-12738, (D-Tyr)-(D-Val)-(D-Asp)-(D-Lys)-(D-Arg)] (HELM PEPTIDE1{[dY].[dV].[dD].[dK].[dR]}$$$$V2.0)
Return: 7300

* * *

protocolDescription: Excretion study in SD rats following single subcutaneous administration
Assay type: in vivo, SD rat
conditionInfo: male, Sprague-Dawley, rat, feces, sc, 10 mg/kg
Peptide text beside a SMILES is read from it.
endpoint: dose excreted at 96 h
Remember to follow the number with its unit.

Enquiry: Looking for the measured dose excreted at 96 h of CC(C)[C@@H](NC(=O)[C@H](N)Cc1ccc(O)cc1)C(=O)N[C@H](CC(=O)O)C(=O)N[C@H](CCCCN)C(=O)N[C@H](CCCNC(=N)N)C(=O)O [FC-12738, (D-Tyr)-(D-Val)-(D-Asp)-(D-Lys)-(D-Arg)] (HELM PEPTIDE1{[dY].[dV].[dD].[dK].[dR]}$$$$V2.0) , can you help?
Return: 2.16%

* * *

protocolDescription: Plasma stability
Format: in vitro ADME, beagle dog
conditionInfo: beagle, dog, plasma
Peptide text beside a SMILES is read from it.
endpoint: remaining at 10 min, 2 μM (%)
Write the answer as a number in %, unit excluded.

Enquiry: Which remaining at 10 min, 2 μM value belongs to CC(C)[C@@H](NC(=O)[C@H](N)Cc1ccc(O)cc1)C(=O)N[C@H](CC(=O)O)C(=O)N[C@H](CCCCN)C(=O)N[C@H](CCCNC(=N)N)C(=O)O [FC-12738, (D-Tyr)-(D-Val)-(D-Asp)-(D-Lys)-(D-Arg)] (HELM PEPTIDE1{[dY].[dV].[dD].[dK].[dR]}$$$$V2.0) ?
Return: 106

* * *

protocolDescription: Excretion study in SD rats following single subcutaneous administration
Format: in vivo, SD rat
conditionInfo: male, Sprague-Dawley, rat, urine + feces, sc, 10 mg/kg
Peptide text beside a SMILES is read from it.
endpoint: dose excreted at 96 h (%)
Use % as the unit, but write only the number.

Enquiry: Which dose excreted at 96 h is reported for this compound? CC(C)[C@@H](NC(=O)[C@H](N)Cc1ccc(O)cc1)C(=O)N[C@H](CC(=O)O)C(=O)N[C@H](CCCCN)C(=O)N[C@H](CCCNC(=N)N)C(=O)O [FC-12738, (D-Tyr)-(D-Val)-(D-Asp)-(D-Lys)-(D-Arg)] (HELM PEPTIDE1{[dY].[dV].[dD].[dK].[dR]}$$$$V2.0)
Return: 88.6

* * *

protocolDescription: Tissue distribution in SD rats after single subcutaneous injection
Format: in vivo, SD rat
conditionInfo: male, SD, rat, kidney, sc, 10 mg/kg
Peptide text beside a SMILES is read from it.
endpoint: tissue level at time at 2 h (ng/g)
Numbers only here, please. The scale is ng/g.

Enquiry: Endpoint output: tissue level at time at 2 h of CC(C)[C@@H](NC(=O)[C@H](N)Cc1ccc(O)cc1)C(=O)N[C@H](CC(=O)O)C(=O)N[C@H](CCCCN)C(=O)N[C@H](CCCNC(=N)N)C(=O)O [FC-12738, (D-Tyr)-(D-Val)-(D-Asp)-(D-Lys)-(D-Arg)] (HELM PEPTIDE1{[dY].[dV].[dD].[dK].[dR]}$$$$V2.0) . Value?
Return: 17300

* * *

protocolDescription: Excretion study in SD rats following single subcutaneous administration
Type: in vivo, SD rat
conditionInfo: male, Sprague-Dawley, rat, urine + feces, sc, 10 mg/kg
Peptide text beside a SMILES is read from it.
endpoint: dose excreted at 48 h
Answer with the number, then the unit.

Enquiry: Bench note: what dose excreted at 48 h did CC(C)[C@@H](NC(=O)[C@H](N)Cc1ccc(O)cc1)C(=O)N[C@H](CC(=O)O)C(=O)N[C@H](CCCCN)C(=O)N[C@H](CCCNC(=N)N)C(=O)O [FC-12738, (D-Tyr)-(D-Val)-(D-Asp)-(D-Lys)-(D-Arg)] (HELM PEPTIDE1{[dY].[dV].[dD].[dK].[dR]}$$$$V2.0) show?
Return: 88.2%
